Just for reference, patent US10743540B2 is where these values come from.

Attribute: Herbicidal activity with respect to [%] STEME
- Tested on: STEME: Stellaria media
- assay.notes: Post-emergence herbicidal effect
- Type: in vivo
- condition.notes: application rate 320 g/ha, treated at one-leaf stage, assessed visually after about 3 weeks, 100% = plants have died
Dear colleague, please send the value followed by its unit.

• CCOC(=O)c1nnc(N[C@@H]2CCc3ccc(C)cc32)nc1N [Example 1.74] = 100%

Query: Herbicidal activity with respect to [%] STEME; subject: Cc1ccc2c(c1)[C@H](Nc1nnc([S+](C)[O-])c(N)n1)CCC2 (some centres unmarked) [Example 1.69]
100%

# repeat for N#Cc1nnc(NC2CCOc3ccc(F)cc32)nc1N (racemic) [Example 1.64]
90%

# repeat for Cc1ccc2c(c1)[C@H](Nc1nnc(C(F)(F)F)c(N)n1)CCC2 [Example 1.52]
100%

# repeat for Nc1nc(N[C@@H]2CCCc3ccccc32)nnc1Cl [Example 1.4]
90%

# repeat for Cc1ccc2c(c1)[C@H](Nc1nnc(S(C)(=O)=O)c(N)n1)[C@@H](C)C2 [Example 1.45]
90%

# repeat for Cc1ccc2c(c1)[C@H](Nc1nnc(C(F)(F)F)c(N)n1)[C@@H](C)C2 [Example 1.23]
100%

# repeat for Cc1ccc2c(c1)[C@H](Nc1nnc(C(N)=O)c(N)n1)CC2 [Example 1.78]
100%

# repeat for N#Cc1nnc(NC2CCOc3ccccc32)nc1N (racemic) [Example 1.60]
90%

# repeat for Cc1ccc2c(c1)[C@H](Nc1nnc([S+](C)[O-])c(N)n1)CC2 (some centres unmarked) [Example 1.71]
100%

# repeat for Nc1nc(N[C@@H]2CCCc3ccccc32)nnc1C(F)(F)F [Example 1.22]
100%

---

- Test system: ABUTH: Abutilon theophrasti
- assay.notes: Pre-emergence herbicidal effect
- Type: in vivo
- condition.notes: application rate 320 g/ha, scored visually after 3 weeks, 100% = plants have died, 0% = like control plants
assay.metric: Herbicidal activity with respect to [%] ABUTH (%)
Answer format: numeric, % implied, no suffix.

• Cc1ccc2c(c1)[C@H](Nc1nnc(C#N)c(N)n1)CC2 = 100
• Cc1ccc2c(c1)[C@H](Nc1nnc(C(F)(F)F)c(N)n1)CCC2 = 100

Could you now look at the following compound, please?
Query: Herbicidal activity with respect to [%] ABUTH; subject: C[S+]([O-])c1nnc(N[C@@H]2CCCc3ccccc32)nc1N (stereo partly drawn)
90

---

- System: STEME: Stellaria media
- assay.notes: Post-emergence herbicidal effect
- Assay type: in vivo
- condition.notes: application rate 320 g/ha, treated at one-leaf stage, assessed visually after about 3 weeks, 100% = plants have died
assay.metric: Herbicidal activity with respect to [%] STEME (%)
Answer format: numeric, % implied, no suffix.

- Cc1ccc2c(c1)[C@H](Nc1nnc(C#N)c(N)n1)[C@@H](C)C2 [Example 1.25]: 100
- Cc1ccc2c(c1)[C@H](Nc1nnc([S+](C)[O-])c(N)n1)[C@@H](C)C2 (stereo partly shown) [Example 1.44]: 90
- CC(=O)c1nnc(N[C@@H]2CCc3ccc(C)cc32)nc1N [Example 1.72]: 100

Query: Herbicidal activity with respect to [%] STEME; subject: Cc1ccc2c(c1)[C@H](Nc1nnc(C(C)O)c(N)n1)[C@@H](C)C2 (stereo partly shown) [Example 1.103]
80

---

- Tested on: STEME: Stellaria media
- assay.notes: Post-emergence herbicidal effect
- Assay type: in vivo
- condition.notes: application rate 320 g/ha, treated at one-leaf stage, assessed visually after about 3 weeks, 100% = plants have died
Attribute: Herbicidal activity with respect to [%] STEME
Answer format: numeric, % implied, no suffix.

Field: example entries. Status: answers known.
* Cc1ccc2c(c1)[C@H](Nc1nnc(S(C)(=O)=O)c(N)n1)CC2 | 100
* Nc1nc(NC2CCOc3ccc(F)cc32)nnc1C(F)(F)F (racemic) | 90
* Nc1nc(NC2CCOc3ccccc32)nnc1C(F)(F)F (stereo not shown) | 100
* Nc1nc(N[C@@H]2CCc3ccccc32)nnc1C(F)(F)F | 100
* C[S+]([O-])c1nnc(N[C@@H]2CCCc3ccccc32)nc1N (stereo partly shown) | 100

Query: Herbicidal activity with respect to [%] STEME; subject: Cc1ccc2c(c1)[C@H](Nc1nnc(C(F)(F)F)c(N)n1)CC2 [Example 1.67]
100

# repeat for Nc1nc(N[C@@H]2CCc3ccccc32)nnc1Cl
100

# repeat for CC(=O)c1nnc(N[C@@H]2CCc3ccccc32)nc1N
90

# repeat for Cc1ccc2c(c1)[C@H](Nc1nnc(C(F)(F)F)c(N)n1)CC2 [Example 1.31]
90

# repeat for Cc1ccc2c(c1)[C@H](Nc1nnc(C(=O)NC(C)C)c(N)n1)[C@@H](C)C2
80

# repeat for Cc1ccc2c(c1)[C@H](Nc1nnc(S(C)(=O)=O)c(N)n1)CCC2
100

# repeat for CCOC(=O)c1nnc(N[C@H]2c3cc(C)ccc3C[C@@H]2C)nc1N
100

---

Attribute: Herbicidal activity with respect to [%] VERPE
- System: VERPE: Veronica persica
- assay.notes: Pre-emergence herbicidal effect
- Format: in vivo
- condition.notes: application rate 320 g/ha, scored visually after 3 weeks, 100% = plants have died, 0% = like control plants
Answer format: numeric, % implied, no suffix.

* CCOC(=O)c1nnc(N[C@H]2c3cc(C)ccc3C[C@@H]2C)nc1N [Example 1.21] | 80
* Cc1ccc2c(c1)[C@H](Nc1nnc(C(F)(F)F)c(N)n1)CC2 [Example 1.67] | 100

Query: Herbicidal activity with respect to [%] VERPE; subject: Cc1ccc2c(c1)[C@H](Nc1nnc(S(C)(=O)=O)c(N)n1)CCC2 [Example 1.68]
100

# repeat for CC(C)(C)c1nnc(NC2CCOc3ccccc32)nc1N (racemic) [Example 1.8]
100

# repeat for Cc1ccc2c(c1)[C@H](Nc1nnc(C(F)(F)F)c(N)n1)CC2 [Example 1.31]
100

---

- System: ECHCG: Echinochloa crus-galli
- assay.notes: Pre-emergence herbicidal effect
- Type: in vivo
- condition.notes: application rate 320 g/ha, scored visually after 3 weeks, 100% = plants have died, 0% = like control plants
Attribute: Herbicidal activity with respect to [%] ECHCG
Answer format: numeric, % implied, no suffix.

* Cc1ccc2c(c1)[C@H](Nc1nnc(C(C)O)c(N)n1)[C@@H](C)C2 (stereo partly drawn) [Example 1.103] | 100
* CC(=O)c1nnc(N[C@@H]2CCCc3ccccc32)nc1N [Example 1.30] | 80
* Cc1ccc2c(c1)[C@H](Nc1nnc(S(C)(=O)=O)c(N)n1)[C@@H](C)C2 [Example 1.45] | 100
* Cc1ccc2c(c1)[C@H](Nc1nnc(C(F)(F)F)c(N)n1)CCC2 [Example 1.52] | 100
* CC(=O)c1nnc(N[C@H]2c3cc(C)ccc3C[C@@H]2C)nc1N [Example 1.26] | 100

Could you now look at the following compound, please?
Query: Herbicidal activity with respect to [%] ECHCG; subject: Nc1nc(NC2CCOc3ccc(F)cc32)nnc1C(F)(F)F (racemic) [Example 1.49]
100

---

Attribute: Herbicidal activity with respect to [%] VERPE
- Test system: VERPE: Veronica persica
- assay.notes: Pre-emergence herbicidal effect
- Format: in vivo
- condition.notes: application rate 320 g/ha, scored visually after 3 weeks, 100% = plants have died, 0% = like control plants
Answer format: numeric, % implied, no suffix.

Field: example entries. Status: answers known.
• C=Cc1nnc(N[C@H]2c3cc(C)ccc3C[C@@H]2C)nc1N = 100
• N#Cc1nnc(N[C@@H]2CCCc3ccccc32)nc1N = 100
• CNC(=O)c1nnc(NC2CCc3ccccc32)nc1N (racemic) = 100
• CCOC(=O)c1nnc(N[C@@H]2CCCc3ccccc32)nc1N = 100
• CCCS(=O)(=O)NC(=O)c1nnc(N[C@H]2c3cc(C)ccc3C[C@@H]2C)nc1N = 100
• Cc1ccc2c(c1)[C@H](Nc1nnc([S+](C)[O-])c(N)n1)CC2 (some centres unmarked) = 100
• Cc1ccc2c(c1)[C@H](Nc1nnc(C(=O)NS(=O)(=O)C(F)(F)F)c(N)n1)[C@@H](C)C2 = 100
• Cc1ccc2c(c1)[C@H](Nc1nnc(C(=O)NS(=O)(=O)c3ccc([N+](=O)[O-])cc3)c(N)n1)[C@@H](C)C2 = 100
• C=C(c1nnc(N[C@H]2c3cc(C)ccc3C[C@@H]2C)nc1N)C(F)(F)F = 100
• N#Cc1nnc(NC2CCOc3ccc(F)cc32)nc1N (racemic) = 100

Could you now look at the following compound, please?
Query: Herbicidal activity with respect to [%] VERPE; subject: CC(=O)c1nnc(N[C@@H]2CCc3ccc(C)cc32)nc1N
100

---

- Test system: ABUTH: Abutilon theophrasti
- assay.notes: Pre-emergence herbicidal effect
- Format: in vivo
- condition.notes: application rate 320 g/ha, scored visually after 3 weeks, 100% = plants have died, 0% = like control plants
Attribute: Herbicidal activity with respect to [%] ABUTH
Answer format: numeric, % implied, no suffix.

Field: example entries. Status: answers known.
• CC(=O)c1nnc(N[C@H]2c3cc(C)ccc3C[C@@H]2C)nc1N [Example 1.26] = 100
• Cc1ccc2c(c1)[C@H](Nc1nnc(Cl)c(N)n1)[C@@H](C)C2 [Example 1.3] = 100
• CC(=O)c1nnc(N[C@@H]2CCc3ccc(C)cc32)nc1N [Example 1.72] = 100
• CS(=O)(=O)c1nnc(N[C@@H]2CCCc3ccccc32)nc1N [Example 1.66] = 100
• Cc1ccc2c(c1)[C@H](Nc1nnc(C(F)(F)F)c(N)n1)CC2 [Example 1.67] = 80
• Nc1nc(N[C@@H]2CCc3ccccc32)nnc1C(F)(F)F [Example 1.24] = 80
• Cc1ccc2c(c1)[C@H](Nc1nnc(C#N)c(N)n1)[C@@H](C)C2 [Example 1.25] = 100
• Cc1ccc2c(c1)[C@H](Nc1nnc(C(F)(F)F)c(N)n1)[C@@H](C)C2 [Example 1.23] = 100
• Cc1ccc2c(c1)[C@H](Nc1nnc(S(C)(=O)=O)c(N)n1)[C@@H](C)C2 [Example 1.45] = 90
• Cc1ccc2c(c1)[C@H](Nc1nnc([S+](C)[O-])c(N)n1)[C@@H](C)C2 (stereo partly drawn) [Example 1.44] = 100

Query: Herbicidal activity with respect to [%] ABUTH; subject: CNC(=O)c1nnc(N[C@@H]2CCc3ccc(C)cc32)nc1N [Example 1.76]
100

# repeat for Cc1ccc2c(c1)[C@H](Nc1nnc([S+](C)[O-])c(N)n1)CC2 (stereo partly drawn) [Example 1.71]
100

# repeat for Cc1ccc2c(c1)[C@H](Nc1nnc(C(N)=O)c(N)n1)CC2 [Example 1.78]
100

# repeat for Nc1nc(N[C@@H]2CCCc3ccccc32)nnc1C(F)(F)F [Example 1.22]
90

# repeat for Cc1ccc2c(c1)[C@H](Nc1nnc(S(C)(=O)=O)c(N)n1)CCC2 [Example 1.68]
100

# repeat for Cc1ccc2c(c1)[C@H](Nc1nnc(C(=O)N(C)C)c(N)n1)[C@@H](C)C2 [Example 1.40]
90

# repeat for Cc1ccc2c(c1)[C@H](Nc1nnc(S(C)(=O)=O)c(N)n1)CC2 [Example 1.73]
100

# repeat for Cc1ccc2c(c1)[C@H](Nc1nnc(C(=O)N(C)C)c(N)n1)CC2 [Example 1.77]
90
